Biological target: IRAK4 protein in THP-1 cells (Homo sapiens, UniProt Q9NWZ3)
Construct: endogenous in cells; host or cells: THP-1
Sequence (Q9NWZ3 whole entry): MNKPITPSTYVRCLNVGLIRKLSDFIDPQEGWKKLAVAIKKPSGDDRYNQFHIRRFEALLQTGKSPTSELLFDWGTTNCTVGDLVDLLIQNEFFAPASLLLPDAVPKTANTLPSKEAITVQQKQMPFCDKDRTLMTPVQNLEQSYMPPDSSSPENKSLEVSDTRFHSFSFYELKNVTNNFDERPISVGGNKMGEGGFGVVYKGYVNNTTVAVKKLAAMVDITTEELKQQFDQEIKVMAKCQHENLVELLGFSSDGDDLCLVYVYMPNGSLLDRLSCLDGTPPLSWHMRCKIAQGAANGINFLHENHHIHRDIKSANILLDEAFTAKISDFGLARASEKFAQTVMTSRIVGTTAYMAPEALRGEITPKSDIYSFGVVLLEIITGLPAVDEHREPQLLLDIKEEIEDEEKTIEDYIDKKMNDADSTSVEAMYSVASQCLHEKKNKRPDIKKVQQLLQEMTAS
Test: Degradation of IRAK4 in THP-1 cells (Western blot)
Assay type: cell-based
Settings: 24 hours, compound 1-3000 nM
measurementKind: Dmax (%)

# compound, targetEntity, units, endpointValue
records = [
    ("CC(C)(O)c1cc2nn(C3CCN(CCC4CCC5(CC4)CCN(C(=O)c4ccc(F)c(C6CCC(=O)NC6=O)c4)CC5)CC3)cc2cc1NC(=O)c1cccc(C(F)(F)F)n1 (stereo not drawn)", "IRAK4 protein in THP-1 cells (Homo sapiens, UniProt Q9NWZ3)", "%", 98),
    ("COc1cc2nn([C@H]3CC[C@H](CN(C)CC4CCN(C(=O)c5ccc(Cl)c(N6CCC(=O)NC6=O)c5)CC4)CC3)cc2cc1NC(=O)c1cccc(C(F)(F)F)n1", "IRAK4 protein in THP-1 cells (Homo sapiens, UniProt Q9NWZ3)", "%", 95.4),
    ("COc1ccc(C(=O)N2CCC3(CC2)CC(CCN2CCC(n4cc5cc(NC(=O)c6cccc(C(F)(F)F)n6)c(C(C)(C)O)cc5n4)CC2)C3)cc1N1CCC(=O)NC1=O", "IRAK4 protein in THP-1 cells (Homo sapiens, UniProt Q9NWZ3)", "%", 86.9),
    ("CC(C)(O)c1cc2nn(C3CCN(CCC4CCC5(CC4)CCN(C(=O)c4ccc(Cl)c(N6CCC(=O)NC6=O)c4)CC5)CC3)cc2cc1NC(=O)c1cccc(C(F)(F)F)n1", "IRAK4 protein in THP-1 cells (Homo sapiens, UniProt Q9NWZ3)", "%", 99.4),
    ("COc1cc2nn(C3CCN(CC4CCC5(CC4)CCN(C(=O)c4ccc(F)c(N6CCC(=O)NC6=O)c4)CC5)CC3)cc2cc1NC(=O)c1cccc(C(F)(F)F)n1", "IRAK4 protein in THP-1 cells (Homo sapiens, UniProt Q9NWZ3)", "%", 98.5),
    ("COc1cc2nn(C3CCN(CCOC4CCN(C(=O)c5ccc(OC)c(N6CCC(=O)NC6=O)c5)CC4)CC3)cc2cc1NC(=O)c1cccc(C(F)(F)F)n1", "IRAK4 protein in THP-1 cells (Homo sapiens, UniProt Q9NWZ3)", "%", 93.7),
    ("COc1cc2nn(C3CCN(CCN4CCC5(CC4)CCN(C(=O)c4ccc(OC)c(N6CCC(=O)NC6=O)c4)CC5)CC3)cc2cc1NC(=O)c1cccc(C(F)(F)F)n1", "IRAK4 protein in THP-1 cells (Homo sapiens, UniProt Q9NWZ3)", "%", 94.6),
    ("CCN(C1CCC2(CC1)CCN(C(=O)c1ccc(Cl)c(N3CCC(=O)NC3=O)c1)CC2)[C@H]1CC[C@H](n2cc3cc(NC(=O)c4cccc(C(F)(F)F)n4)c(OC)cc3n2)CC1", "IRAK4 protein in THP-1 cells (Homo sapiens, UniProt Q9NWZ3)", "%", 93.2),
    ("COc1cc2nn(C3CCN(CCC4CCC5(CC4)CCN(C(=O)c4ccc(F)c(N6CCC(=O)NC6=O)c4)CC5)CC3)cc2cc1NC(=O)c1cccc(C(F)(F)F)n1", "IRAK4 protein in THP-1 cells (Homo sapiens, UniProt Q9NWZ3)", "%", 97.8),
    ("COc1cc2nn(C3CCN(CCCCN4CCC5(CC4)CCN(C(=O)c4ccc(OC)c(N6CCC(=O)NC6=O)c4)CC5)CC3)cc2cc1NC(=O)c1cccc(C(F)(F)F)n1", "IRAK4 protein in THP-1 cells (Homo sapiens, UniProt Q9NWZ3)", "%", 90.5),
    ("COc1cc2nn([C@H]3CC[C@H](CN(C)CCC4CCN(C(=O)c5ccc(Cl)c(N6CCC(=O)NC6=O)c5)CC4)CC3)cc2cc1NC(=O)c1cccc(C(F)(F)F)n1", "IRAK4 protein in THP-1 cells (Homo sapiens, UniProt Q9NWZ3)", "%", 99.2),
    ("COc1cc2nn(C3CCN(CC4CC5(CCN(C(=O)c6ccc(Cl)c(N7CCC(=O)NC7=O)c6)CC5)C4)CC3)cc2cc1NC(=O)c1cccc(C(F)(F)F)n1", "IRAK4 protein in THP-1 cells (Homo sapiens, UniProt Q9NWZ3)", "%", 89.4),
    ("COc1cc2nn([C@H]3CC[C@H](N(C)C4CCC5(CC4)CCN(C(=O)c4ccc(Cl)c(N6CCC(=O)NC6=O)c4)CC5)CC3)cc2cc1NC(=O)c1cccc(C(F)(F)F)n1", "IRAK4 protein in THP-1 cells (Homo sapiens, UniProt Q9NWZ3)", "%", 97),
    ("COc1cc2nn(C3CCN(CCC4CC5(CCN(C(=O)c6ccc(Cl)c(N7CCC(=O)NC7=O)c6)CC5)C4)CC3)cc2cc1NC(=O)c1cccc(C(F)(F)F)n1", "IRAK4 protein in THP-1 cells (Homo sapiens, UniProt Q9NWZ3)", "%", 98.7),
    ("COc1ccc(C(=O)N2CCC3(CCC(CN4CCC(n5cc6cc(NC(=O)c7cccc(C(F)(F)F)n7)c(C(C)(C)O)cc6n5)CC4)CC3)CC2)cc1N1CCC(=O)NC1=O", "IRAK4 protein in THP-1 cells (Homo sapiens, UniProt Q9NWZ3)", "%", 96.6),
    ("COc1ccc(C(=O)N2CCC3(CCC(CCN4CCC(n5cc6cc(NC(=O)c7cccc(C(F)(F)F)n7)c(C(C)(C)O)cc6n5)CC4)CC3)CC2)cc1N1CCC(=O)NC1=O", "IRAK4 protein in THP-1 cells (Homo sapiens, UniProt Q9NWZ3)", "%", 90.1),
    ("COc1cc2nn([C@H]3CC[C@H](COCCC4CCN(C(=O)c5ccc(Cl)c(N6CCC(=O)NC6=O)c5)CC4)CC3)cc2cc1NC(=O)c1cccc(C(F)(F)F)n1", "IRAK4 protein in THP-1 cells (Homo sapiens, UniProt Q9NWZ3)", "%", 95.6),
    ("COc1ccc(C(=O)N2CCC(CCN3CCC(n4cc5cc(NC(=O)c6cccc(C(F)(F)F)n6)c(C(C)(C)O)cc5n4)CC3)CC2)cc1N1CCC(=O)NC1=O", "IRAK4 protein in THP-1 cells (Homo sapiens, UniProt Q9NWZ3)", "%", 95.5),
    ("CC(C)(O)c1cc2nn(C3CCN(CCC4CC5(CCN(C(=O)c6ccc(Cl)c(N7CCC(=O)NC7=O)c6)CC5)C4)CC3)cc2cc1NC(=O)c1cccc(C(F)(F)F)n1", "IRAK4 protein in THP-1 cells (Homo sapiens, UniProt Q9NWZ3)", "%", 96.3),
    ("COc1ccc(C(=O)N2CCC3(CC2)CN(CCN2CCC(n4cc5cc(NC(=O)c6cccc(C(F)(F)F)n6)c(C(C)(C)O)cc5n4)CC2)C3)cc1N1CCC(=O)NC1=O", "IRAK4 protein in THP-1 cells (Homo sapiens, UniProt Q9NWZ3)", "%", 96.9),
    ("COc1cc2nn(C3CCN(CC4CCC5(CC4)CCN(C(=O)c4ccc(OC)c(N6CCC(=O)NC6=O)c4)CC5)CC3)cc2cc1NC(=O)c1cccc(C(F)(F)F)n1", "IRAK4 protein in THP-1 cells (Homo sapiens, UniProt Q9NWZ3)", "%", 98.4),
]
